# Tested on: UACC-257 melanoma
# method: NCI-60 one-dose screen, 48 h (100 = growth as untreated, 0 = no growth, -100 = all killed)
# experimental parameters: 10 µM unless noted
This is part of a sample that, as a whole, favours compounds with a hit. Of some 83,000 tested, about 20% had one in any assay.
readout: growth (%)

1. N#Cc1c(Nc2ccc(N3CCOCC3)cc2)nc(SCC(=O)c2ccc(Br)cc2)nc1-c1ccccc1 :: 102
2. C/C(=N\O)c1ccc(NC(=O)CSc2nnc(-c3cc(-c4ccc(S(C)(=O)=O)cc4)nc4ccccc34)n2-c2ccccc2)cc1 :: 99.1
3. CC1(C)N=C(N)N=C(N)N1c1cccc(CCc2ccccc2)c1 :: 39.3
4. C=C(C)[C@@H]1CC[C@]2(C(N)=O)CC[C@]3(C)[C@H](CC[C@@H]4[C@@]5(C)CC[C@H](OCCC#N)C(C)(C)[C@@H]5CC[C@]43C)[C@@H]12 :: 101
5. Cc1ccc(/C=C/C(=O)c2ccc(-n3cc(CN4CCN(c5cc6c(cc5F)c(=O)c(C(=O)O)cn6C5CC5)CC4)nn3)cc2)cc1 :: 101
6. C[C@H](CCCC(=O)NCC#CCN1CCN(C)CC1)[C@H]1CC[C@H]2[C@@H]3CC[C@@H]4CC(=O)CC[C@]4(C)[C@H]3CC[C@]12C :: 96.3
7. CCc1ccc(CCC(=O)Nc2ncc(Cc3ccccc3)s2)o1 :: 58.9
8. O=C1/C(=C/c2ccccn2)NC(=S)N1c1ccccc1Cl :: 74.5

The measured values listed here are drawn from PubChem BioAssay (NCI).
